System: MS2 coat protein
assay.overview: apparent Kd, MS2 coat protein; higher = weaker binding; RNA-MaP array; theophylline 2 mM where present
details: ligand present: theophylline; designed as: OFF switch for theophylline
The following sequences are listed with their measured apparent Kd values.
observed.property: apparent Kd (nM)

>  <residue.codes>
CAAUACGUAACUGAUACCAGUGUACUGACAUGAGGAUCACCCAUGUUGGGUUUUGUUGUACACCCUUGGCAGCAGAAUCGUAUUG

>  <observed.property>
apparent Kd

>  <result.unit>
nM

>  <value.measured>
93.7

$$$$
>  <residue.codes>
GUUAUGGACCUGGAUACCAGCUGGUACAAGGGCGGUCUACAUGAGGAUCACCCAUGUGUCAGCCCUUGGCAGCCAGCAACCCACU

>  <observed.property>
apparent Kd

>  <result.unit>
nM

>  <value.measured>
11.4

$$$$
>  <residue.codes>
AACUGGACCCGUGAUACCAGAGACAUGAGGAUCACCCAUGUACAUGAGGAUCACCCAUGUCUCCCUUGGCAGCACCGCAGGGAGC

>  <observed.property>
apparent Kd

>  <result.unit>
nM

>  <value.measured>
393

$$$$
